- Tested on: giant foxtail (Setaria faberii)
- protocol.summary: Test A postemergence
- Assay type: in vivo
- applied.conditions: Postemergence, 500 g ai/ha; 0 to 100 scale where 0 is no effect and 100 is complete control
- Excerpt: […]

{"compound": "O=C1NCC(c2cc(F)cc(Cl)c2)C1C(=O)Nc1cccc(F)c1F (stereo not drawn) [Compound 492]", "Plant response rating, Foxtail, Giant": 90}
{"compound": "C=CCN1CC(c2cccc(C(F)(F)F)c2)C(C(=O)Nc2cccc(F)c2F)C1=O (stereo not drawn) [Compound 606]", "Plant response rating, Foxtail, Giant": 90}
{"compound": "O=C1NCC(c2cccc(C(F)(F)F)c2)C1C(=O)Nc1ccccc1O (stereo not drawn) [Compound 557]", "Plant response rating, Foxtail, Giant": 0}
